The measurements presented in this section are drawn from ChEMBL document CHEMBL1133693.

Assay: Mean relative potency is the ratio of potencies of 'Ac-(Cha)RAMASL-NH2' and compound, to inhibit MHC class II DRB1*0101
Non-standard residues stand in square brackets, D forms with d. Residues, ends and D or L forms follow the SMILES beside them. Phe(3-F) = N[C@@H](Cc1cccc(F)c1)C(=O)O; NMeCha = CN[C@@H](CC1CCCCC1)C(=O)O; Cha = N[C@@H](CC1CCCCC1)C(=O)O; Nle = CCCC[C@H](N)C(=O)O
attribute.measured: Mean relative potency

Consider the reported Mean relative potency for these molecules:
| molecule | Mean relative potency |
| --- | --- |
| CSCC[C@@H](NC(=O)[C@H]1Cc2ccccc2CN1C(=O)[C@H](CCCN=C(N)N)NC(=O)[C@H](CC1CCCCC1)NC(C)=O)C(=O)N1CCC(c2ccccc2)[C@@H]1C(=O)N[C@@H](CO)C(=O)N(C)[C@@H](CC(C)C)C(N)=O (some centres undefined) | 0.49 |
| CSCC[C@H](NC(=O)[C@H](C)NC(=O)[C@H](CCCN=C(N)N)NC(=O)[C@H](CC1CCCCC1)N(C)C(C)=O)C(=O)N[C@@H](C)C(=O)N[C@@H](CO)C(=O)N[C@@H](CC(C)C)C(N)=O (Ac-[NMeCha]RAMASL-NH2) | 0.25 |

(1) CCCC[C@H](NC(=O)[C@H](C)NC(=O)[C@H](CCCN=C(N)N)NC(=O)[C@H](CC1CCCCC1)NC(C)=O)C(=O)N[C@@H](C)C(=O)N[C@@H](CO)C(=O)N[C@@H](CC(C)C)C(N)=O (Ac-[Cha]RA[Nle]ASL-NH2)
(2) CSCC[C@H](NC(=O)[C@H](C)NC(=O)[C@H](CCCN=C(N)N)NC(=O)[C@H](Cc1cccc(F)c1)NC(C)=O)C(=O)N[C@@H](C)C(=O)N[C@@H](CO)C(=O)N[C@@H](CC(C)C)C(N)=O (Ac-[Phe(3-F)]RAMASL-NH2)
Asked: Out of 1 and 2 , name the one with the higher Mean relative potency. // output: label of the selected item
Given back: 1
(1: 0.77, 2: 0.17)
